Origin of values: ChEMBL document CHEMBL1275245

# Experiment: Cmax in TB patient serum at 500 mg/kg TID
# Type: ADME, organism-based
# Parameters: dose 500 mg/kg
# Test settings: human
Recorded endpoint: Cmax (ng/mL)
Report the value in ng/mL with no unit label.

Incoming: Would you kindly share the measured Cmax for NC(=O)c1cnccn1 [PYRAZINAMIDE] ?
Outgoing: 20200

---

# Experiment: Systemic clearance in TB patient serum at 1500 mg/kg daily
# Format: ADME, organism-based
# Design: dose 1500 mg/kg
# Test settings: human
Recorded endpoint: clearance (mL/min)
Give your result in mL/min as a bare value.

Incoming: Quick one: clearance for NC(=O)c1cnccn1 [PYRAZINAMIDE] ?
Outgoing: 66.2

---

# Experiment: AUC (0 to 168 hrs) in serum of TB patient at 3000 mg/kg administered alternate day
# Assay type: ADME, organism-based
# Parameters: time < 168 hr, dose 3000 mg/kg
# Test settings: human
Recorded endpoint: AUC(0-t) at 168 h

Incoming: Which AUC(0-t) at 168 h value belongs to NC(=O)c1cnccn1 [PYRAZINAMIDE] ?
Outgoing: 2160 µg·h/mL

---

# Experiment: AUC (0 to 168 hrs) in serum of TB patient at 1500 mg/kg daily
# Assay type: ADME, organism-based
# Design: time < 168 hr, dose 1500 mg/kg
# Test settings: human
Recorded endpoint: AUC at 168 h (µg·h/mL)
Supply the numeric figure in µg·h/mL, leaving out any unit text.

Incoming: Look up AUC at 168 h for this compound: NC(=O)c1cnccn1 [PYRAZINAMIDE]
Outgoing: 2270

---

# Experiment: Systemic clearance in TB patient serum at 500 mg/ kg TID
# Format: ADME, organism-based
# Set-up: dose 500 mg/ kg
# Test settings: human
Recorded endpoint: clearance (mL/min)
Supply the numeric figure in mL/min, leaving out any unit text.

Incoming: Please look up its clearance: NC(=O)c1cnccn1 [PYRAZINAMIDE]
Outgoing: 68.5

---

# Experiment: Cmax in TB patient serum at 3000 mg/kg administered alternate day
# Assay type: ADME, organism-based
# Design: dose 3000 mg/kg
# Test settings: human
Recorded endpoint: Cmax (µg/mL)
Answer format: numeric, µg/mL implied, no suffix.

Incoming: Could you share which Cmax value was measured for NC(=O)c1cnccn1 [PYRAZINAMIDE] ?
Outgoing: 67.5
